Origin of measurements: PubChem BioAssay AID1963866

# System: PDC KRAS tumor spheroids with HUVEC/MSC, viability;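 note: spheroids exposed to compounds for seven days before readout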
# experimentDescription: Anticancer human tumor 349418-098-R-PDC patient-derived lung adenocarcinoma cell line growth inhibition [KRAS2]; active = viability on the fitted dose curve at most 10% of control; inactive = the rest
# condition: second compound 1 µM; first compound 10 µM
# Source text: Multicellular complex tumor spheroid response to RAS pathway inhibitors in combination with a targeted agents in patient-derived cell lines with oncogenic KRAS variants from multiple cancer types A high-throughput screen of multi-cell type tumor spheroids was designed to identify active combinations of targeted small molecules and KRAS pathway inhibitors. […] Compounds. […] If the clinical Cmax for an agent had not been determined, the highest concentration tested was 10 microM. […]
Outcomes you can answer with include only these: active, inactive

Sample answers from the record:
CCNC(=O)CC1N=C(c2ccc(Cl)cc2)c2cc(OC)ccc2-n2c(C)nnc21 (stereo not given) + COc1cc2nc(C)nc(NC(C)c3cc(N)cc(C(F)(F)F)c3)c2cc1OC1CCOC1 = active
COC(=O)c1ccc2c(C(=Nc3ccc(N(C)C(=O)CN4CCN(C)CC4)cc3)c3ccccc3)c(O)[nH]c2c1 + CNCc1ccccc1-c1csc(C(C)Nc2nc(C)nc3cc(OC)c(OC)cc23)c1 = active
CCNC(=O)CC1N=C(c2ccc(Cl)cc2)c2cc(OC)ccc2-n2c(C)nnc21 (stereo not given) + C=CC(=O)N1CCN(c2nc(=O)n(-c3c(C)ccnc3C(C)C)c3nc(-c4c(O)cccc4F)c(F)cc23)C(C)C1 = active
COC(=O)c1ccc2c(C(=Nc3ccc(N(C)C(=O)CN4CCN(C)CC4)cc3)c3ccccc3)c(O)[nH]c2c1 + COc1cc2nc(C)nc(NC(C)c3cc(N)cc(C(F)(F)F)c3)c2cc1OC1CCOC1 = inactive

Enquiry: Per the assay record, what outcome was assigned to CCNC(=O)CC1N=C(c2ccc(Cl)cc2)c2cc(OC)ccc2-n2c(C)nnc21 (stereo not given) + C=CC(=O)N1CCN(c2nc(OCC3CCCN3C)nc3c2CCN(c2cccc4cccc(C)c24)C3)CC1CC#N ?
Return: active
